# Test system: HRE-bla ME-180 cells
# assayProcedure: Reporter gene assay (HRE-bla ME-180 HIF reporter, GeneBLAzer)
# Assay type: cell-based, human
# statedConditions: 18 h; at top conc; 24 hrs normoxia
Bridge positions count the residues as written; N and C are the ends. Square brackets hold non-standard residues; d marks the D form. Peptide text beside a SMILES is read from it. R8 = C=CCCCCCC[C@@](C)(N)C(=O)O; S5 = C=CCCC[C@](C)(N)C(=O)O; Nle = CCCC[C@H](N)C(=O)O
assayMetric: 18 h Avg % max inhibition at top conc (HIF Rptr-24 hrs normoxia) (μM)

Answered examples (5):
| compound | studyTarget | dataValue |
| --- | --- | --- |
| CCCC[C@@H]1NC(=O)[C@H](CC(C)C)NC(=O)[C@H](C(C)C)NC(=O)[C@@](C)(NC(=O)[C@H](CCC(=O)O)NC(=O)[C@H](CC(=O)O)NC(=O)[C@@H](NC(=O)[C@H](Cc2ccccc2)NC(C)=O)[C@@H](C)CC)CCCC=CCCCC2(CCCC=CCCC[C@](C)(C(=O)N[C@@H](CCC(N)=O)C(=O)N[C@@H](C)C(=O)N[C@@H](CC(C)C)C(N)=O)NC(=O)[C@H]([C@@H](C)CC)NC(=O)[C@H](C(C)C)NC(=O)[C@H](CC(C)C)NC2=O)NC1=O (some centres unmarked) | HRE-bla ME-180 cells | ++++ (≥50: ++++) |
| CC[C@H](C)[C@H](NC(=O)[C@H](Cc1ccccc1)NC(C)=O)C(=O)N[C@@H](CC(=O)O)C(=O)N[C@@H](CCC(=O)O)C(=O)N[C@@H](CO)C(=O)N[C@H](C(=O)N[C@@H](CC(C)C)C(=O)N[C@@H](CCSC)C(=O)N[C@@]1(C)CCCC=CCCC[C@@](C)(C(=O)N[C@@H](CCSC)C(=O)N[C@@H](C)C(=O)N[C@@H](CC(C)C)C(N)=O)NC(=O)[C@H]([C@@H](C)CC)NC(=O)[C@H](C(C)C)NC(=O)[C@H](CC(C)C)NC1=O)C(C)C [SP-238] (Ac-FIDESVLM[S5]LVI[S5]MAL-NH2; staple 9-13) | HRE-bla ME-180 cells | ++ (≤10 but <25: ++) |
| CC[C@H](C)[C@H](NC(=O)[C@H](Cc1ccccc1)NC(C)=O)C(=O)N[C@@H](CC(=O)O)C(=O)N[C@@H](CCC(=O)O)C(=O)N[C@H](C(=O)N[C@H](C(=O)N[C@@H](CC(C)C)C(=O)N[C@@H](CCSC)C(=O)N[C@@]1(C)CCCC=CCCC[C@@](C)(C(=O)N[C@@H](CCSC)C(=O)N[C@@H](C)C(=O)N[C@@H](CC(C)C)C(N)=O)NC(=O)[C@H]([C@@H](C)CC)NC(=O)[C@H](C(C)C)NC(=O)[C@H](CC(C)C)NC1=O)C(C)C)[C@@H](C)O [SP-239] (Ac-FIDETVLM[S5]LVI[S5]MAL-NH2; staple 9-13) | HRE-bla ME-180 cells | ++ (≤10 but <25: ++) |
| CCCC[C@@H]1NC(=O)[C@H](CC(C)C)NC(=O)[C@H](C(C)C)NC(=O)[C@@](C)(NC(=O)[C@H](CCC(=O)O)NC(=O)[C@H](CC(=O)O)NC(=O)[C@@H](NC(=O)[C@H](Cc2ccccc2)NC(C)=O)[C@@H](C)CC)CCCC=CCCCC2(CCCC=CCCC[C@](C)(C(=O)N[C@@H](CCCC)C(=O)N[C@@H](C)C(=O)N[C@@H](CC(C)C)C(N)=O)NC(=O)[C@H]([C@@H](C)CC)NC(=O)[C@H](C(C)C)NC(=O)[C@H](CCCNC(=N)N)NC2=O)NC1=O (some centres unmarked) | HRE-bla ME-180 cells | ++ (≤10 but <25: ++) |
| CCCC[C@H](NC(=O)[C@H](C)NC(=O)[C@]1(C)CCCC=CCCCCCC[C@@](C)(NC(=O)[C@H](CCC(=O)O)NC(=O)[C@H](CC(=O)O)NC(=O)[C@@H](NC(=O)[C@H](Cc2ccccc2)NC(C)=O)[C@@H](C)CC)C(=O)N[C@@H](C(C)C)C(=O)N[C@@H](CC(C)C)C(=O)N[C@@H](CCCC)C(=O)N[C@@H](CO)C(=O)N[C@@H](CC(C)C)C(=O)N[C@@H](C(C)C)C(=O)N1)C(=O)N[C@@H](C)C(=O)N[C@@H](CC(C)C)C(N)=O [SP-196] (Ac-FIDE[R8]VL[Nle]SLV[S5]A[Nle]AL-NH2; staple 5-12) | HRE-bla ME-180 cells | ++++ (≥50: ++++) |

Now for the compound whose 18 h Avg % max inhibition at top conc (HIF Rptr-24 hrs normoxia) (μM) we want.
Entry CC[C@H](C)[C@H](NC(=O)[C@H](Cc1ccccc1)NC(C)=O)C(=O)N[C@@H](CC(N)=O)C(=O)N[C@@H](CCC(=O)O)C(=O)N[C@@H](CCC(=O)O)C(=O)N[C@H](C(=O)N[C@@H](CC(C)C)C(=O)N[C@@H](CCSC)C(=O)N[C@@]1(C)CCCC=CCCC[C@@](C)(C(=O)N[C@@H](CCSC)C(=O)N[C@@H](C)C(=O)N[C@@H](CC(C)C)C(N)=O)NC(=O)[C@H]([C@@H](C)CC)NC(=O)[C@H](C(C)C)NC(=O)[C@H](CC(C)C)NC1=O)C(C)C [SP-232] (Ac-FINEEVLM[S5]LVI[S5]MAL-NH2; staple 9-13) , 18 h Avg % max inhibition at top conc (HIF Rptr-24 hrs normoxia) (μM) reported as ++ (≤10 but <25: ++)

====

# studyTarget: flag-tagged HIF1α (AA 786-826) / His6-tagged p300 (AA 323-423) complex (Homo sapiens)
# Construct: His6-tagged p300 (AA 323-423); made in house; host or cells: E. coli (pETDuet vector)
# assayProcedure: HIF1α p300 displacement assay (TR FRET, +CHAPS)
# Type: binding
# statedConditions: read-out: IC50 (nM) (HIF1α_p300 Displacement + CHAPS)
Recorded IC50 for the following compounds

| compound | IC50 |
| --- | --- |
| CCCC[C@H](NC(=O)[C@@]1(C)CCCC=CCCCC2(CCCC=CCCC[C@](C)(NC(=O)[C@H](CCC(=O)O)NC(=O)[C@H](CC(=O)O)NC(=O)[C@@H](NC(=O)[C@H](Cc3ccccc3)NC(C)=O)[C@@H](C)CC)C(=O)N[C@@H](C(C)C)C(=O)N[C@@H](CC(C)C)C(=O)N[C@@H](CCC(=O)O)C(=O)N2)C(=O)N[C@@H](CC(C)C)C(=O)N[C@@H](C(C)C)C(=O)N[C@@H]([C@@H](C)CC)C(=O)N1)C(=O)N[C@@H](C)C(=O)N[C@@H](CC(C)C)C(N)=O (some centres unmarked) | 200 to 400 nM |

// IC50 lookup, compound = CCCC[C@@H]1NC(=O)[C@H](CC(C)C)NC(=O)[C@H](CCCNC(=N)N)NC(=O)[C@@](C)(NC(=O)[C@H](CCC(=O)O)NC(=O)[C@H](CC(=O)O)NC(=O)[C@@H](NC(=O)[C@H](Cc2ccccc2)NC(C)=O)[C@@H](C)CC)CCCC=CCCCC2(CCCC=CCCC[C@](C)(C(=O)N[C@@H](CCCC)C(=O)N[C@@H](C)C(=O)N[C@@H](CC(C)C)C(N)=O)NC(=O)[C@H]([C@@H](C)CC)NC(=O)[C@H](C(C)C)NC(=O)[C@H](CC(C)C)NC2=O)NC1=O (some centres unmarked) , result: > 700 nM

====

# Test system: HRE-bla ME-180 cells
# assayProcedure: Reporter gene assay (HRE-bla ME-180 HIF reporter, GeneBLAzer)
# Format: cell-based, human
# statedConditions: 24 hour normoxia
# Method: The following reagents were used: • DMEM+GutaMAX: (#10569044, Invitrogen) • Black clear bottom plates: (#3603, Costar) • HRE-bla-ME-180 cell line: (#K1644, Invitrogen) • Gene-Blazer reagent & protocol: (#K1096, Invitrogen) • Plate reader: Biotek Synergy 2 • Chetomin: (C9623, Sigma) 4 hours prior to experiment: HRE-bla ME-180 cells were seeded at a density of 20,000 cells/well in a volume of 180 μl in black clear bottom 96-well plates. 180 μl of assay medium was added to the cell-free control wells. […]
Bridge positions count the residues as written; N and C are the ends. Square brackets hold non-standard residues; d marks the D form. Peptide text beside a SMILES is read from it. S5 = C=CCCC[C@](C)(N)C(=O)O; Nle = CCCC[C@H](N)C(=O)O
assayMetric: EC50

EC50 on HRE-bla ME-180 cells for CCCC[C@H](NC(=O)[C@H](CCC(=O)O)NC(=O)[C@@H](NC(=O)[C@@H](NC(=O)[C@H](CC(C)C)NC(=O)[C@]1(C)CCCC=CCCC[C@](C)(NC(=O)[C@H](CCC(=O)O)NC(=O)[C@H](CC(=O)O)NC(=O)[C@@H](NC(=O)[C@H](Cc2ccccc2)NC(C)=O)[C@@H](C)O)C(=O)N[C@@H](C(C)C)C(=O)N[C@@H](CC(C)C)C(=O)N[C@@H](CCCC)C(=O)N1)C(C)C)[C@@H](C)CC)C(=O)N[C@@H](C)C(=O)N[C@@H](CC(C)C)C(N)=O [SP-153] (Ac-FTDE[S5]VL[Nle][S5]LVIE[Nle]AL-NH2; staple 5-9) is > 30 µM
